// provenance: BigSolDB 2.1

conditions: in toluene, 303.15 K
Recorded metric: solubility (mole fraction)
Lab note: write the figure by itself, no unit.

What value of measured solubility (mole fraction) is listed for O=P(NC1CCCCC1)(Oc1ccccc1)Oc1ccccc1 ?
0.0911

====

conditions: in chloroform, 293.15 K
Recorded metric: solubility (mole fraction)
Lab note: write the figure by itself, no unit.

What value of measured solubility (mole fraction) is listed for O=P(NC1CCCCC1)(Oc1ccccc1)Oc1ccccc1 ?
0.207

====

details: in methanol, 318.15 K
Recorded metric: solubility (mole fraction)
Lab note: write the figure by itself, no unit.

What value of measured solubility (mole fraction) is listed for O=P(NC1CCCCC1)(Oc1ccccc1)Oc1ccccc1 ?
0.161

====

details: in benzene, 338.15 K
Recorded metric: solubility (mole fraction)

What value of measured solubility (mole fraction) is listed for O=P(NC1CCCCC1)(Oc1ccccc1)Oc1ccccc1 ?
0.55

====

settings: in chloroform, 308.15 K
Recorded metric: solubility (mole fraction)

What value of measured solubility (mole fraction) is listed for O=P(NC1CCCCC1)(Oc1ccccc1)Oc1ccccc1 ?
0.313

====

conditions: in ethanol, 333.15 K
Recorded metric: solubility (mole fraction)

What value of measured solubility (mole fraction) is listed for O=P(NC1CCCCC1)(Oc1ccccc1)Oc1ccccc1 ?
0.317

====

details: in benzene, 323.15 K
Recorded metric: solubility (mole fraction)
Lab note: write the figure by itself, no unit.

What value of measured solubility (mole fraction) is listed for O=P(NC1CCCCC1)(Oc1ccccc1)Oc1ccccc1 ?
0.292

====

conditions: in acetone, 303.15 K
Recorded metric: solubility (mole fraction)
Lab note: write the figure by itself, no unit.

What value of measured solubility (mole fraction) is listed for O=P(NC1CCCCC1)(Oc1ccccc1)Oc1ccccc1 ?
0.0796

====

settings: in ethyl acetate, 343.15 K
Recorded metric: solubility (mole fraction)
Lab note: write the figure by itself, no unit.

What value of measured solubility (mole fraction) is listed for O=P(NC1CCCCC1)(Oc1ccccc1)Oc1ccccc1 ?
0.426

====

settings: in ethyl acetate, 308.15 K
Recorded metric: solubility (mole fraction)

What value of measured solubility (mole fraction) is listed for O=P(NC1CCCCC1)(Oc1ccccc1)Oc1ccccc1 ?
0.0721

====

settings: in THF, 313.15 K
Recorded metric: solubility (mole fraction)
Lab note: write the figure by itself, no unit.

What value of measured solubility (mole fraction) is listed for O=P(NC1CCCCC1)(Oc1ccccc1)Oc1ccccc1 ?
0.318

====

settings: in acetonitrile, 333.15 K
Recorded metric: solubility (mole fraction)
Lab note: write the figure by itself, no unit.

What value of measured solubility (mole fraction) is listed for O=P(NC1CCCCC1)(Oc1ccccc1)Oc1ccccc1 ?
0.191

====

settings: in methanol, 313.15 K
Recorded metric: solubility (mole fraction)

What value of measured solubility (mole fraction) is listed for O=P(NC1CCCCC1)(Oc1ccccc1)Oc1ccccc1 ?
0.121

====

conditions: in chloroform, 303.15 K
Recorded metric: solubility (mole fraction)
Lab note: write the figure by itself, no unit.

What value of measured solubility (mole fraction) is listed for O=P(NC1CCCCC1)(Oc1ccccc1)Oc1ccccc1 ?
0.266

====

settings: in dichloromethane, 288.15 K
Recorded metric: solubility (mole fraction)

What value of measured solubility (mole fraction) is listed for O=P(NC1CCCCC1)(Oc1ccccc1)Oc1ccccc1 ?
0.129
